Test system: Saccharomyces cerevisiae
assay_summary: Drug uptake in Saccharomyces cerevisiae AD12345678 at 200 uM pretreated for 10 mins measured after 60 mins by fluorescamine staining in presence of fluconazole
Format: ADME, organism-based
experimental_setup: in vivo, 1 h
Non-standard residues stand in square brackets, D forms with d. Residues, ends and D or L forms follow the SMILES beside them. Phe(3-F) = N[C@@H](Cc1cccc(F)c1)C(=O)O
Here the recorded Drug uptake is given for each entry.
Value expressed in nmol/min/mg; do not type the unit.

compound | system_tested | units_label | experimental_result
C[C@@H]([C@H](N)C(=O)N[C@H](C(=O)O)[C@H]1O[C@@H](n2ccc(=O)[nH]c2=O)[C@H](O)[C@@H]1O)[C@H](O)c1ccc(O)cn1 [NIKKOMYCIN] | Saccharomyces cerevisiae | nmol/min/mg | 0.32
CC(C)C[C@H](N)C(=O)N[C@@H](Cc1cccc(F)c1)C(=O)O (H-Leu-[Phe(3-F)]-OH) | Saccharomyces cerevisiae | nmol/min/mg | 0.79
CC(C)C[C@H](NC(=O)[C@@H](N)COCCN)C(=O)NCC(=O)O | Saccharomyces cerevisiae | nmol/min/mg | 0.7

Okay, next one:
Given the compound C[C@H](N)C(=O)N[C@@H](C)C(=O)O (H-Ala-Ala-OH) , what is its reported Drug uptake?
2.55
